Test Target: human IGF-IR (Homo sapiens)
Construct: complete human IGF-IR cDNA: GenBank Acc; No. NM_000875
Sequence (P08069 31-1367): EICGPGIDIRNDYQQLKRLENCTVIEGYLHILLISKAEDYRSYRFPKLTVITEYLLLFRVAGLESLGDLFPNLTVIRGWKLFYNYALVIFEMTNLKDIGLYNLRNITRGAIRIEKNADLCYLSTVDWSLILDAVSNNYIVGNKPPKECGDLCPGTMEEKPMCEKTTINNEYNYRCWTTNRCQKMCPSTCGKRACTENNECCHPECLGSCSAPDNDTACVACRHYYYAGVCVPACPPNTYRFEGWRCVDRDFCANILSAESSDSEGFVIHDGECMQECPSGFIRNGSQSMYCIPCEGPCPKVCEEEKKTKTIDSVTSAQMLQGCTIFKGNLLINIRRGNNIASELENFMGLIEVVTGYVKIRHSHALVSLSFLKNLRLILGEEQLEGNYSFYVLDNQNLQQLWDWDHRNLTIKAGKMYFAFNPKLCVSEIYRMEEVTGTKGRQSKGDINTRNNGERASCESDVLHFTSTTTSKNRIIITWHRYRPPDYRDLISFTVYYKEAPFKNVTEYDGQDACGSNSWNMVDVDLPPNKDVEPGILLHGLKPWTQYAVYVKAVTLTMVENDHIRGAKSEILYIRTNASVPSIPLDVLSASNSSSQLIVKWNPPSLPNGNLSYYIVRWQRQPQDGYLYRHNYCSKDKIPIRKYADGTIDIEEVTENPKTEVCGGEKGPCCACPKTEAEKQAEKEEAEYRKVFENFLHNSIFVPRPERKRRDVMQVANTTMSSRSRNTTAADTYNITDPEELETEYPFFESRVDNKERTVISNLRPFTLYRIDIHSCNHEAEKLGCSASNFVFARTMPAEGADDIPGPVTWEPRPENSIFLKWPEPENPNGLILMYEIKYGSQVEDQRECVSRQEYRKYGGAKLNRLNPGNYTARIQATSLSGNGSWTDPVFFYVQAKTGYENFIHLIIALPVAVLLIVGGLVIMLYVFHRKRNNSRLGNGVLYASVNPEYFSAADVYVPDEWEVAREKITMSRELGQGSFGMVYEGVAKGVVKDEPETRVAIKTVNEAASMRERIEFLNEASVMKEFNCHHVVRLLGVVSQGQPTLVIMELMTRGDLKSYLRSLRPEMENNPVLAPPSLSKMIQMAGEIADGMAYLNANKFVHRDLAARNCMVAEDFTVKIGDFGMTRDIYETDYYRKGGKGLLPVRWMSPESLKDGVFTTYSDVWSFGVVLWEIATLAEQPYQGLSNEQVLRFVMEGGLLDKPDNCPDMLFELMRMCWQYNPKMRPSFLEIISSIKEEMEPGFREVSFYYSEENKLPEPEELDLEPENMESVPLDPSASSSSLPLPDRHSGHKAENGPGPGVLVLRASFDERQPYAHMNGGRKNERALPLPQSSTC
Assay Text: cellular "Capture ELISA": IGF-I induced IGF-IR autophosphorylation
Experimental Parameters: NIH-3T3 mouse fibroblasts transfected with human IGF-IR cDNA, 90 min compound, 10 ng/ml IGF-I for 10 min
pIC50: −log10 of the molar value.
Each record here notes measured pIC50.
Endpoint Name: pIC50

[
  {
    "Compound": "Nc1ncnc2c1c(-c1cccc(OCc3ccccc3)c1)cn2[C@H]1C[C@H](CNC(=O)OCCN2CCOCC2)C1 [Example 96]",
    "Numeric Result": 7.30
  },
  {
    "Compound": "Nc1ncnc2c1c(-c1cccc(OCc3ccccc3)c1)cn2[C@H]1C[C@@H](CN2CCSCC2)C1 [Example 81]",
    "Numeric Result": 7.10
  },
  {
    "Compound": "Cc1c(-c2cccc(OCc3ccccc3)c2)c2c(N)ncnc2n1[C@H]1C[C@H](CN2CCC[C@@H]2CO)C1 [Example 112]",
    "Numeric Result": 7.05
  },
  {
    "Compound": "CC(C)NC(=O)NC[C@H]1C[C@@H](n2cc(-c3cccc(OCc4ccccc4)c3)c3c(N)ncnc32)C1 [Example 31]",
    "Numeric Result": 7.52
  },
  {
    "Compound": "Cc1c(-c2cccc(OCc3ccccc3)c2)c2c(N)ncnc2n1[C@H]1C[C@@H](CN2CCN(C)CC2)C1 [Example 117]",
    "Numeric Result": 6.89
  },
  {
    "Compound": "NC(=O)[C@@H]1CCCN1C[C@H]1C[C@H](n2cc(-c3cccc(OCc4ccccc4)c3)c3c(N)ncnc32)C1 [Example 75]",
    "Numeric Result": 7.30
  },
  {
    "Compound": "CS(=O)(=O)NC[C@H]1C[C@@H](n2cc(-c3cccc(OCc4ccccc4)c3)c3c(N)ncnc32)C1 [Example 14]",
    "Numeric Result": 7.52
  },
  {
    "Compound": "NC[C@H]1C[C@H](n2cc(-c3cccc(OCc4ccccc4)c3)c3c(N)ncnc32)C1 [Example 2]",
    "Numeric Result": 7.52
  },
  {
    "Compound": "CCNC(=O)NC[C@H]1C[C@@H](n2cc(-c3cccc(OCc4ccccc4)c3)c3c(N)ncnc32)C1 [Example 27]",
    "Numeric Result": 7.30
  },
  {
    "Compound": "CCCNC(=O)NC[C@H]1C[C@H](n2cc(-c3cccc(OCc4ccccc4)c3)c3c(N)ncnc32)C1 [Example 28]",
    "Numeric Result": 7.30
  },
  {
    "Compound": "Nc1ncnc2c1c(-c1cccc(OCc3ccccc3)c1)cn2[C@H]1C[C@H](CNC(=O)N2CCCCC2)C1 [Example 90]",
    "Numeric Result": 7.05
  },
  {
    "Compound": "NC(=O)[C@H]1CCCN1C[C@H]1C[C@@H](n2cc(-c3cccc(OCc4ccccc4)c3)c3c(N)ncnc32)C1 [Example 83]",
    "Numeric Result": 7.28
  },
  {
    "Compound": "CNC[C@H]1C[C@H](n2cc(-c3cccc(OCc4ccccc4)c3)c3c(N)ncnc32)C1 [Example 10]",
    "Numeric Result": 7.15
  },
  {
    "Compound": "Cc1c(-c2cccc(OCc3ccccc3)c2)c2c(N)ncnc2n1[C@H]1C[C@H](CN2CCC(O)CC2)C1 [Example 109]",
    "Numeric Result": 6.82
  },
  {
    "Compound": "CNC(=O)NC[C@H]1C[C@@H](n2cc(-c3cccc(OCc4ccccc4)c3)c3c(N)ncnc32)C1 [Example 88]",
    "Numeric Result": 7.24
  }
]
